Entries and their combination Emax values follow.
System: NB12 (Neuroblastoma)
Assay: combination Emax (second highest fraction inhibited in the dose matrix, 72 h); higher = more inhibition; extreme values may be limits of the assay

{"compound": "NC1(C(=O)N[C@@H](CCO)c2ccc(Cl)cc2)CCN(c2ncnc3[nH]ccc23)CC1 [Capivasertib] + CCN(CCO)CCCOc1ccc2c(Nc3cc(CC(=O)Nc4cccc(F)c4)[nH]n3)ncnc2c1 [AZD2811] (first compound max 10 µM, 7x7, partner max 1 µM)", "combination Emax": 0.783}
{"compound": "C[C@@H](Oc1cc(-c2cnn(C3CCNCC3)c2)cnc1N)c1c(Cl)ccc(F)c1Cl [Crizotinib] + CC1=C(C(=CC=C1)Cl)NC(=O)C2=CN=C(S2)NC3=CC(=NC(=N3)C)N4CCN(CC4)CCO [Dasatinib] (first compound max 10 µM, 7x7, partner max 2 µM)", "combination Emax": 0.766}
